Examples of molecules with documented log10(GI50) follow.
System: TMD-8 cells
protocol-description: Cell proliferation assay (CellTiter-Glo), TMD-8 cells
Format: cell-based
test-parameters: Homo sapiens, TMD8, 120 h, 5-day treatment, read-out: TMD8 cell growth (GI50 μM)
Short version: log10 scale, GI50, µM.

Some molecules with recorded log10(GI50):
molecule	target-or-test-system	log10(GI50)
COc1ccccc1OCC#Cc1cc2c(N[C@@H]3CCN(C(=O)/C=C/CN(C)C)C3)ncnc2[nH]1	TMD-8 cells	-1.77
C=CC(=O)N1CC[C@@H](Nc2ncnc3[nH]c(C#Cc4ccc(C(F)(F)F)cc4)cc23)C1	TMD-8 cells	-2.40
CN(C)C/C=C/C(=O)N1CCC(Nc2ncnc3[nH]c(C#CCOc4ccc(F)cc4)nc23)C1 (stereo not shown)	TMD-8 cells	0.00
O=C(C1CC1)N1CC[C@@H](Nc2ncnc3[nH]c(C#CCOc4ccccc4F)cc23)C1	TMD-8 cells	0.62
CN(C)C/C=C/C(=O)N1CCC(Nc2ncnc3[nH]c(C#CCOc4ccccc4)cc23)C1 (stereo not shown)	TMD-8 cells	-0.97
C=CC(=O)N1CC[C@@H](Nc2ncnc3[nH]c(C#CCOc4cccc(F)c4F)nc23)C1	TMD-8 cells	-3.00
C=CC(=O)Nc1cccc(Nc2ncnc3[nH]c(C#Cc4ccccc4)cc23)c1	TMD-8 cells	-1.10
C=CC(=O)N1CC[C@@H](Nc2ncnc3[nH]c(C#CCOc4cccc5c4OCO5)cc23)C1	TMD-8 cells	-2.77

Fill in the blank: the reported log10(GI50) of `C=CC(=O)N1CC[C@@H](Nc2ncnc3[nH]c(C#Cc4ccc(F)cc4)cc23)C1` is ____.
-1.62

Fill in the blank: the reported log10(GI50) of `C=CC(=O)N1CC[C@@H](Nc2ncnc3[nH]c(C#Cc4cccs4)cc23)C1` is ____.
-2.31

Fill in the blank: the reported log10(GI50) of `C=CC(=O)N1CCN(c2ncnc3[nH]c(C#CCOc4ccccc4)nc23)CC1` is ____.
-1.72

Fill in the blank: the reported log10(GI50) of `C=CC(=O)N1CC[C@@H](Nc2ncnc3[nH]c(C#CCOc4ccccc4OC)nc23)C1` is ____.
-2.40

Fill in the blank: the reported log10(GI50) of `C=CC(=O)N1CC[C@@H](Nc2ncnc3[nH]c(C#Cc4cccc(C(F)(F)F)c4)cc23)C1` is ____.
-2.52

Fill in the blank: the reported log10(GI50) of `C=CC(=O)N1CC[C@@H](Nc2ncnc3[nH]c(C#Cc4ccc(Cl)c(Cl)c4)cc23)C1` is ____.
-2.30

Fill in the blank: the reported log10(GI50) of `C=CC(=O)N1CC[C@@H](Nc2ncnc3[nH]c(C#Cc4ccsc4)cc23)C1` is ____.
-2.49

Fill in the blank: the reported log10(GI50) of `CN(C)C/C=C/C(=O)N1CC[C@@H](Nc2ncnc3[nH]c(C#CCOc4ccccc4F)cc23)C1` is ____.
-1.77

* * *

target-or-test-system: Btk (Homo sapiens, UniProt Q06187)
Construct: purchased Promega (Madison, Wis.)
Sequence (Q06187 whole entry): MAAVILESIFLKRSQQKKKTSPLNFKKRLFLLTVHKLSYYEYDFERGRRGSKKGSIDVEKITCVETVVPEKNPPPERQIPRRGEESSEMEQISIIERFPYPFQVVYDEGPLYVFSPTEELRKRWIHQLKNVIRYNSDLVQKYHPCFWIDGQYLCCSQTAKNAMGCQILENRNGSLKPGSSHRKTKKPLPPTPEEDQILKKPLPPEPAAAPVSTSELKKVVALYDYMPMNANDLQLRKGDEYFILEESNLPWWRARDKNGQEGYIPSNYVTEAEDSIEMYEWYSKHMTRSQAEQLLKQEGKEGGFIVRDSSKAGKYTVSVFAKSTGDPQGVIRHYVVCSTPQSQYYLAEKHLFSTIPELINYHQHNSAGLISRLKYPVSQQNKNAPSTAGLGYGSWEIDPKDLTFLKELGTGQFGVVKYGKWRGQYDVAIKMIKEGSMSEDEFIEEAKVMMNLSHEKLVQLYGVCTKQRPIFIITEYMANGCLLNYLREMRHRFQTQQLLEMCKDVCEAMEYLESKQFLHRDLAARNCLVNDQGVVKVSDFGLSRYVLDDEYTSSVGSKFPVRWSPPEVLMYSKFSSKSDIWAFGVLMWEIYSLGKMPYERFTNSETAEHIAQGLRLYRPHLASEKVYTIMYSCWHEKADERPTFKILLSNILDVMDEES
protocol-description: Btk kinase assay (ADP-Glo)
Assay type: biochemical
test-parameters: ADP-Glo Btk kinase assay kit; ATP 1.2 μM; 60 minutes at room temperature
Procedure: Btk kinase assay—The Btk kinase assay was performed using a ADP-Glo Btk kinase assay kit purchased from Promega (Madison, Wis.). The assay was conducted according to the protocols provided in the assay kit. […] Finally, 10 μl of the kinase detection reagent was added into each reaction to simultaneously convert ADP to ATP and allow the newly synthesized ATP to be measured by a plate-reading luminometer (Victor X5 2030 multilabel reader, PerkinElmer). […]
Threshold check on IC50: strictly below 10 nM is t; on or above 10 nM is f.

Before answering, review these 3 worked examples.
molecule	label-class
COc1ccccc1OCC#Cc1cc2c(N[C@@H]3CCN(C(=O)/C=C/CN(C)C)C3)ncnc2[nH]1 [Example 46]	t
C=CC(=O)N1CCN(c2ncnc3[nH]c(C#CCOCc4ccccc4)cc23)CC1 [Example 4]	f
C=CC(=O)N1CC[C@@H](Nc2ncnc3[nH]c(C#CCOc4ccccc4F)nc23)C1 [Example 101]	t

Hello, is IC50 of the following molecule strictly smaller than 10 nM? C=CC(=O)N1CC[C@@H](Nc2ncnc3[nH]c(C#CCOc4ccccc4OC(F)(F)F)cc23)C1 [Example 81]
f

Hello, is IC50 of the following molecule strictly smaller than 10 nM? C=CC(=O)Nc1cccc(Nc2ncnc3[nH]c(C#Cc4ccccc4)cc23)c1 [Example 103]
t

Hello, is IC50 of the following molecule strictly smaller than 10 nM? C=CC(=O)N1CCC(Nc2ncnc3[nH]c(C#CCOc4ccccc4Cl)nc23)C1 (centres unmarked) [Example 18]
t

Hello, is IC50 of the following molecule strictly smaller than 10 nM? CN(C)C/C=C/C(=O)N1CCC(N(C)c2ncnc3[nH]c(C#CCOc4ccccc4)cc23)C1 (centres unmarked) [Example 39]
f

Hello, is IC50 of the following molecule strictly smaller than 10 nM? CN(C)C/C=C/C(=O)N1CC[C@@H](Nc2ncnc3[nH]c(C#Cc4ccccc4)cc23)C1 [Example 54]
t

Hello, is IC50 of the following molecule strictly smaller than 10 nM? C/C=C/C(=O)N1CC[C@@H](Nc2ncnc3[nH]c(C#CCOc4ccccc4F)cc23)C1 [Example 48]
f

Hello, is IC50 of the following molecule strictly smaller than 10 nM? CN(C)C/C=C/C(=O)N1CC[C@@H](Nc2ncnc3[nH]c(C#Cc4ccccc4Cl)cc23)C1 [Example 56]
f

Hello, is IC50 of the following molecule strictly smaller than 10 nM? C=CC(=O)N1CC[C@@H](Nc2ncnc3[nH]c(C#Cc4cccc(Cl)c4)cc23)C1 [Example 57]
f
